What inhibition at 1 µM was measured for each of the following?
experimental-system: S. aureus GyrB ATPase (Staphylococcus aureus, UniProt P0A0K8)
Sequence (P0A0K8 whole entry): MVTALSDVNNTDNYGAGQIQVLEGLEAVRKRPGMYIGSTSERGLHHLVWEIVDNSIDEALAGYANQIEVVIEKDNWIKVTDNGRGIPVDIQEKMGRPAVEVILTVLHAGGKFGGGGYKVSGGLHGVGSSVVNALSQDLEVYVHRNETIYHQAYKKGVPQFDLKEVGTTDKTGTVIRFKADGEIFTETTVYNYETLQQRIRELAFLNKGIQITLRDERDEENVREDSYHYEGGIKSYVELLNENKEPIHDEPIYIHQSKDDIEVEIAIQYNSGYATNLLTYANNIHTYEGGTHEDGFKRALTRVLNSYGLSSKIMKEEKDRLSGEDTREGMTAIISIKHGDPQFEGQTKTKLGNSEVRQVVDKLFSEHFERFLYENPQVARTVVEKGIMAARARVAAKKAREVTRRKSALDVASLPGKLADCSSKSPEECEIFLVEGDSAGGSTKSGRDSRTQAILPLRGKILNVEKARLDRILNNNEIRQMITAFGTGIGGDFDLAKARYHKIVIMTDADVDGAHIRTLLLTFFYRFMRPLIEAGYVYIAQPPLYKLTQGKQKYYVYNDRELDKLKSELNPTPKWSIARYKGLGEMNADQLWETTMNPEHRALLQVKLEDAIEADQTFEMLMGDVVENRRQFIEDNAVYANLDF
Sequence (P0AES4 whole entry, further chain): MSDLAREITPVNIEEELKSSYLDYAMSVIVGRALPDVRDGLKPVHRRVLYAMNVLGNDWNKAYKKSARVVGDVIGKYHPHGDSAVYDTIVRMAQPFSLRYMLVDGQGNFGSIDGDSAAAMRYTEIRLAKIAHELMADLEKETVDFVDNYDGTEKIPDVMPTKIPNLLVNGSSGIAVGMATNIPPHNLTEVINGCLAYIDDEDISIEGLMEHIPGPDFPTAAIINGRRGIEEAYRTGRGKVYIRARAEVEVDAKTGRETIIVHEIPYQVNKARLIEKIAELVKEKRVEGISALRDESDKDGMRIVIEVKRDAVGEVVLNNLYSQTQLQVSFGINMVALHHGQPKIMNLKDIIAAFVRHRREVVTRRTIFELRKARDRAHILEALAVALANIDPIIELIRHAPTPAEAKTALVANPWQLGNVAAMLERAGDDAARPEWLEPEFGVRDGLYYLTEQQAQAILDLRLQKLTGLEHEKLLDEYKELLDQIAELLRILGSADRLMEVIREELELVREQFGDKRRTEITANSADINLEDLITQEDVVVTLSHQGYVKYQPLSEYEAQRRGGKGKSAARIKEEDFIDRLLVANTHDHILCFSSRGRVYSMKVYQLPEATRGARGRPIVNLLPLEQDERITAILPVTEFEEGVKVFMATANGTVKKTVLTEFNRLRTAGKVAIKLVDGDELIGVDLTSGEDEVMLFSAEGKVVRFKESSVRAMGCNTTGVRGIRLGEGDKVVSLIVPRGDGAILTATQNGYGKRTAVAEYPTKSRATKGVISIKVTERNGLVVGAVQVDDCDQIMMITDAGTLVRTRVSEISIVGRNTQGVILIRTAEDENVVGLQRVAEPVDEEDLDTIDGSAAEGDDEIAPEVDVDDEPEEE
protocol-notes: biochemical
test-parameters: compound at 1 μM; one value per test if tested more than once; read-out: % Inhibition of S. aureus GyrB ATPase
One number for each entry, in %.

See these solved cases before continuing.
CCNC(=O)Nc1cc(-c2nc(C(F)(F)F)cs2)c(-c2ccc3c(=O)c(C(=O)NCCO)cn(CCC(C)C)c3c2)cn1 [Example 336]; 109
CCCNC(=O)Nc1cc(-c2nc(C(F)(F)F)cs2)c(-c2ccc3c(c2)c(=O)c(C(=O)N2CCN(S(C)(=O)=O)CC2)cn3C2CN(C)C2)cn1 [Example 170]; 102
CCCNC(=O)Nc1cc(-c2nc(C(F)(F)F)cs2)c(-c2ccc3c(c2)c(=O)c(C(=O)N2CCN(S(=O)(=O)N(C)C)CC2)cn3C2CN(C)C2)cn1 [Example 164]; 107
CCNC(=O)Nc1cc(-c2nc(C(F)(F)F)cs2)c(-c2ccc3c(c2)c(=O)c(C(=O)O)cn3CC2CCN(C)CC2)cn1 [Example 94]; 95
CCNC(=O)Nc1cc(-c2nc(C(F)(F)F)cs2)c(-c2ccc3c(=O)c(C(=O)NCCN(C)C)cn(CCO)c3c2)cn1 [Example 366]; 99

# evaluate next
Input: Given the compound CCNC(=O)Nc1cc(-c2nc(-c3ccccc3)cs2)c(-c2ccc3c(c2)c(=O)c(C(=O)O)cn3CCOC)cn1 [Example 2] , write its reported inhibition at 1 µM.
Output: 100

====

What inhibition at 1 µM was measured for each of the following?
experimental-system: S. aureus GyrB ATPase (Staphylococcus aureus)
protocol-notes: biochemical
test-parameters: compound at 1 μM; one value per test if tested more than once; read-out: % Inhibition of S. aureus GyrB ATPase
Numbers only, in %.

See these solved cases before continuing.
CCNC(=O)Nc1cc(-c2nc(C(F)(F)F)cs2)c(-c2ccc3c(c2)c(=O)c(C(=O)O)cn3[C@H](CO)[C@@H](C)O)cn1; 105
CCNC(=O)Nc1cc(-c2nc(C(F)(F)F)cs2)c(-c2ccc3c(c2)c(=O)c(C(=O)O)cn3C[C@H]2CCN(CCN3CCOCC3)C2)cn1; 97
CCNC(=O)Nc1cc(-c2nc(C(F)(F)F)cs2)c(-c2ccc3c(=O)c(C(=O)NCCN4CCN(C)CC4)cn(CC(C)C)c3c2)cn1; 87
CCCNC(=O)Nc1cc(-c2nc(C(F)(F)F)cs2)c(-c2ccc3c(c2)c(=O)c(C(=O)NCCN(C)C)cn3CCN(C)C)cn1; 86
CCNC(=O)Nc1cc(-c2nc(-c3ccccc3)cs2)c(-c2ccc3c(=O)c(C(=O)O)cn(CC)c3c2)cn1; 101

Input: Given the compound `CCNC(=O)Nc1cc(-c2nc(C(F)(F)F)cs2)c(-c2ccc3c(=O)c(C(=O)NCCN(C)C)cn(CCC(C)C)c3c2)cn1` , write its reported inhibition at 1 µM.
Output: 99

====

What inhibition at 1 µM was measured for each of the following?
experimental-system: S. aureus GyrB ATPase (Staphylococcus aureus, UniProt P0A0K8)
protocol-notes: biochemical
test-parameters: compound at 1 μM; one value per test if tested more than once; read-out: % Inhibition of S. aureus GyrB ATPase
Counter-ions that a name gives are not always drawn.
Numbers only, in %.

See these solved cases before continuing.
CCNC(=O)Nc1cc(-c2nc(C(F)(F)F)cs2)c(-c2ccc3c(c2)c(=O)c(C(=O)O)cn3C(C)C)cn1; 98
CCCNC(=O)Nc1cc(-c2nc(C(F)(F)F)cs2)c(-c2ccc3c(c2)c(=O)c(C(=O)O)cn3C2CCOCC2)cn1; 92

# evaluate next
Input: Given the compound CCNC(=O)Nc1cc(-c2nc(C(F)(F)F)cs2)c(-c2ccc3c(c2)c(=O)c(C(=O)O)cn3CC2CCN(CCO)C2)cn1 (stereo not drawn) [Example 308, hydrochloride] , write its reported inhibition at 1 µM.
Output: 111
